B1: ETS1 (parent)
chain: YVRDRADLNKDKPVIPAAALAGYT

Variants of: B1
Assay: protein stability index of a GFP-peptide fusion (GPS, HEK-293T) (PSI 1-6); higher = more stable;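 further: lentivirally expressed fusions sorted by FACS into six bins by GFP to DsRed ratio, PSI derived from sequencing read proportions per bin multiplied by bin number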
Details: c terminus: a fixed tail appended
Classification field: enter 1 (yes) for protein stability index values not below 2, 0 (no) for values below it.

Consider the following illustrative entries.
{"VARIANT_KEY": "N9K", "ANSWER_LABEL": "1 (yes)"}
{"VARIANT_KEY": "Y1V", "ANSWER_LABEL": "1 (yes)"}

Prompt: Please indicate if the recorded protein stability index for I15V meets or exceeds 2.
Completion: 0 (no)

Prompt: Decide: protein stability index of R5S >= 2?
Completion: 1 (yes)

Prompt: Check this variant for protein stability index at or above 2: D4N
Completion: 1 (yes)
